# System name: thrombin (alpha-thrombin) (Homo sapiens, UniProt P00734;P00734 P00734:315-363,P00734:364-622)
# Assay comment: filter; 10 nM thrombin
Measured attribute: binding signal (% bound)
Express the result in % bound but write the number alone.

Q) What does the data say about its binding signal? Entry: TCCCGCATTGAATAGGACTCAGGGATGGTGTGGGTGGCTGAGGATCGATC (ssDNA) [AMX(399)_D6]
A) 22.7

Q) Requested read-out: binding signal. Entry: TCCCATCGATCTGTGGTCTTTTTTGGTGTGGGTGGCTGAGGATCGATC (ssDNA) [AMX(399)_D12]
A) 32.6

Q) So what does the record say about binding signal for TCCCATCGATCTGTGGTGGTTTTGTGGTTTGGGTGGCTGAGGATCGATC (ssDNA) [AMX(399)_D10] ?
A) 38.8

Q) # input binder: TCCCATCGGTCCGGGGTAATTTACTGGGTCGGGTGGCTGAGGATCGATC (ssDNA) [AMX(398)_A8] ; wanted: its binding signal
A) 40

Q) I have this binder here, TCCCCATCGATCCTGGTCTCTTTTGTTCTGGGTGGCTGAGGATCGATC (ssDNA) [AMX(399)_G11] , and I need its recorded binding signal.
A) 12.8

Q) What does the record list as binding signal for TCCCTTGTCGATTCTGGTATGTTTTGGTCCGGGTGGCTGAGGATCGATC (ssDNA) [AMX(398)_D7] ?
A) 35
